Assay: MTT cytotoxicity assay, GES-1 normal cells
Format: cell-based, human
Settings: human
The entries below come with measured IC50 at 48 h values attached.
observable: IC50 at 48 h

[[record]]
compound = "CC(=O)Oc1ccccc1C(=O)OC1CC2C3(C)CCC(O)C(C)(C)C3CCC2(C)C2(C)CCC(C3(C)CCCC(C)(C)O3)C12 (stereo not drawn) [Compound 5b]"
result = "> 100 µM"

[[record]]
compound = "CC(C)(O)CCCC(C)(O)C1CCC2(C)C1C(O)CC1C3(C)CCC(OC(=O)c4ccccc4O)C(C)(C)C3CCC12C (stereo not drawn) [Compound 9a]"
result = "> 100 µM"

[[record]]
compound = "CC(=O)Oc1ccccc1C(=O)OC1CCC2(C)C(CCC3(C)C2CC(O)C2C(C(C)(O)CCCC(C)(C)O)CCC23C)C1(C)C (stereo not drawn) [Compound 8b]"
result = "> 100 µM"

